These data points were gathered from the supplement of paper PMC9170038.

tested on: MS2 coat protein; assay: apparent KD of MS2 coat protein; higher = weaker reporter binding; details: Eterna round: R107; input ligand: tryptophan 2.4 mM
Test readout: apparent KD of MS2 coat protein (nM)

>  <Chain sequence>
AUAUGAUCAUGGGAUACCAGAAAUGGUAUUCCUUUAUUUCUUACAUGAGGAUCACCCAUGUUCCCUUGGCAGCUUAUGAUCAUAU [ETHB #5]

>  <Assay result>
67.9

$$$$
>  <Chain sequence>
AUACAUGAGGAUCACCCAUGUAAAGUUGAAGGAGCGACCAGAGGGUCAGGUAGGUCGCAACACAUGAGGAUCACCCAUGUAUCGA [DOUBLE!!! :-D #6]

>  <Assay result>
71.4

$$$$
>  <Chain sequence>
AGCACUGUGACGGCCGCCACUACAUAAGAUGGGUGGUCAGGUUCAUUACAUGAGGAUCACCCAUGUAGGACCGGGUCUCAGUGCA [Omei Trp Exc B A v10]

>  <Assay result>
7.71

$$$$
>  <Chain sequence>
CAUAUAUAUGGAAGGAGCGCGAUUACAUAACAUGAGGAUCACCCAUGUAAGAAAUUAUUCAUGCAGGUAGGUCGCCAUAUAUAUG [Same State Arginine B GF6]

>  <Assay result>
26.6

$$$$
>  <Chain sequence>
AAGGUGAUCCCAGAUACCAGCUUAACAUGAGGAUCACCCAUGUAUGGGACGAAAGUCCCGGGCCCUUGGCAGCUGGGUUGCCAAG [SSTheo B #16]

>  <Assay result>
170

$$$$
>  <Chain sequence>
ACAUGAGGAUCACCCAUGUAUUGAGCCGAAGGAGCGGCAGGUAUGCCAGGUAGGUCGCGGUUAGAGUAGAUUGAUGUUCUUUUGU [Exclusion - Arginine A / B]

>  <Assay result>
12.4

$$$$
>  <Chain sequence>
ACGGACAUGAGGAUCACCCAUGUGGCCGAAGGAGCGGGAAUUAACCCAGGUAGGUCGCGGAAAUUUUUUAAAUUAUUUUAAUUUU [Same State - Arginine A]

>  <Assay result>
17.3

$$$$
>  <Chain sequence>
UUAUAUUCUCAAUCGCCAUGUGCUUUAGAUACCAGUCUGAUAAAUGACCCUUGGCAGCUAGAGACAUGAGGAUCACCCAUGUCUU [theeternabot_exclusion_MS2_Theo_A_8]

>  <Assay result>
11.2

$$$$
>  <Chain sequence>
GGAUAGGACACGGCCGCCACUAGCUAGGAUACUAGCAACAUUUCCUCAUCUGAGGAUCACCCAGGUAGGACCGGGUGUCCUAUCG

>  <Assay result>
565

$$$$
>  <Chain sequence>
UCGUGUGUUUCGGAUACCAGUGUGGUCGAUACAUGAGGAUCACCCAUGUGAGAGGAGGUACACCCUUGGCAGCUGGCUGUUGCGG [qqwmullin]

>  <Assay result>
77.5

$$$$
>  <Chain sequence>
UAUACUAUGAAAGUAGUAUAUACGUGUUGACGAGGACCGGUACGGCCGCCACUCGACAUGAGGAUCACCCAUGUAUAGAAUAAGU [TrypA_F1]

>  <Assay result>
15.3

$$$$
>  <Chain sequence>
AGCGACAUGCAUGAUACCAGCUACAUGAGGAUCACCCAUGUACGUCAGUAAUGACUGUGUAGCCCUUGGCAGCAUAAAGCAUGUC [Exclusion - Theophylline B (Freestyle 17)]

>  <Assay result>
26.5

$$$$
>  <Chain sequence>
UAUAUUGUGAUGGAUACCAGCAGAGAAAACGUUUAUCCUAACAUGAGGAUCACCCAUGUAUGCCCUUGGCAGCUGUUGUGAUAUA [8.N]

>  <Assay result>
61.1

$$$$
>  <Chain sequence>
UCACAUGAGGAUCACCCAUGUGUCAGAGAAGGAGCGGCCGCAAGGCCAGGUAGGUCGCUCGGGUAUUGUGAGGUUCACCCGUGUG [#1 Exclusion - Arginine A Attempt #12 (Inspired by cyborg)]

>  <Assay result>
34.6

$$$$
>  <Chain sequence>
UGUGCAGGAUGCGUAAAGGGUCUUGGGCAUCGAGGACCGGUACGGCCGCCACUCGGCUGUACAUGAGGAUCACCCAUGUCAGGGU [#1 Same State - Tryptophan A Attempt #20 (HarryS)]

>  <Assay result>
271

$$$$
>  <Chain sequence>
UGACAUUGCUCAGAUACCAGACAUGAGCAUCAGCCAUGUACCAAGAGUACAUAUUAAAAUGUCCCUUGGCAGCUGAGCAAUGUCU [Mod of Eli's TheoBX5 #AlternateMS2 v1]

>  <Assay result>
11.8

$$$$
>  <Chain sequence>
AGUCUUAAUGGAAGGAGCGCAGUCAUAACAUGAGGAUCACCCAUGUCGAGGUGAGGGUCAUUGCAGGUAGGUCGCCAUACUAGGA [Same State - Arginine B (Freestyle 2)]

>  <Assay result>
131

$$$$
>  <Chain sequence>
UAAUAAUUGUGAUUCUCAGGUCCUCGAUAACGAGGACCGGUACGGCCGCCACUCGAACAUGAGGAUCACCCAUGUAUGAGGACCU [M'-T'-T-MS2-T'' - Design 3]

>  <Assay result>
13.8

$$$$
>  <Chain sequence>
GCACUACAUGAGGAUCACCCAUGUGCAGAUACCAGAGGUGUAUGCCUCCCUUGGCAGCUGCGUCGCUCUGGAAACUUAUUGGUUU [Same State Theophylline A GF17]

>  <Assay result>
18.6

$$$$
>  <Chain sequence>
UCGGACAUGAGGAUCACCCAUGUAAAUCCUCGAGGACCGGUACGGCCGCCACUCGAACGAGUGGCGCGCGAGCGCGCGCUCGCGC [aGa]

>  <Assay result>
36.9

$$$$
>  <Chain sequence>
GCACCAGGUACGGAUACCAGAGCAAGCCAAAUGAGUGAACAUGAGGAUCACCCAUGUUUGCUCCCUUGGCAGCCGUACCUGGUGC [ETB NP+V+V2 #11 +-Same Structure]

>  <Assay result>
9.35

$$$$
>  <Chain sequence>
GUGUGCGGCACGGCCGCCACUGCGGUGGUGUGACAUGAGGAUCACCCAUGUUGUCAUGCGGCCCUUAGGACCGGGUGGCGUGCAC [#1 Exclusion - Tryptophan B Attempt #17 (HarryS)]

>  <Assay result>
46.5

$$$$
